assay: Human ADME study: PK of ribociclib and LEQ803 in plasma and urine (validated bioanalytical assay); format: in vivo; conditions: male, plasma and urine; human, single oral 600 mg; read-out: renal clearance, median (converted)
Readout name: CL renal
Mention the unit after the number when you answer.

Incoming: Param item = "CN(C)C(=O)c1cc2cnc(Nc3ccc(N4CCNCC4)cn3)nc2n1C1CCCC1" ; retrieve measured CL renal.
Outgoing: 92.5 mL/min
